- Test system: RXRa homodimer (NR concentration 180 nM)
- experiment-description: PBM binding z-score (relative to random genomic background probes); higher = stronger binding; sequences stand for … in GC…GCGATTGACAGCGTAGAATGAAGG
measured-attribute: PBM binding z-score

Illustrative cases are given below, each with its answer.
ACAGACAGGTAATGAAGGTAACTCAGGCTATCAT; 0.59
CGTCCAAGGTCAGAGCGGTCAGTGAATGCCGAGT; 3.84
CCAGACAGGTGAAAAGTAACTCAGTCTGGTACGC; 0.307

Which PBM binding z-score is listed for `ACTAGCAGGCCAAGGGTCACTCGAGATTAGTCCG` ?
4.28

Another sequence to check: `GCAGACAGGTGAAACGCAGGTAACTCTGGGTGGC`
0.337

Another sequence to check: `TCTATTAATTGAAGGGCAACCGACGAGTCCGTTT`
0.717

Another sequence to check: `GCTAGTTGGTCAGTAGAAGGTCACACACCGGTCG`
3.35

Another sequence to check: `TCTATAAGTTGATTAGGGCAACCGAAACAGCGGA`
0.5

====

- Tested on: RARg homodimer (NR concentration 270 nM)
- experiment-description: PBM binding z-score (relative to random genomic background probes); higher = stronger binding; sequences stand for … in GC…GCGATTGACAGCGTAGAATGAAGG
measured-attribute: PBM binding z-score
Number only, please.

Illustrative cases are given below, each with its answer.
CGTCAAACTTCAAGGTAACGTAACAGAAAGCAGC; 0.537
TCTGCTAGGTCAGTTGGTTAGCTAACGAGCTGCC; 2.76
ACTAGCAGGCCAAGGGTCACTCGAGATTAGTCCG; 4.02
TGAATGAGGTTAAAGATCAGGCAACGTGGCGTCG; 1.16

Would you kindly look at the next entry?
Which PBM binding z-score is listed for `TCATATCGGTAAACAGGTGAAAGTCCGTAAGTTA` ?
0.211

====

- System: PXR:RXRa (NR concentration 270 nM, RXRa partner concentration 90 nM)
- experiment-description: PBM binding z-score (relative to random genomic background probes); higher = stronger binding; sequences stand for … in GC…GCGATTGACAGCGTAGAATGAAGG
Please map values of PBM binding z-score to classes as shown: lower segment = under 0.6, middle segment = from 0.6 up to 3, upper segment = 3 and over

ATCTCTAGGTAACCAAATTCAGTGAATGCCGAAC; lower segment
GCTAACGGGTCAAAGGTTATAGCATGAATAGAAT; upper segment
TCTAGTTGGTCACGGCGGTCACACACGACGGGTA; lower segment
GTACCAAGGTGAATAGATCGTTGATGAGTAGGCG; lower segment
TCTTGTAGATCAAAGGTTAAGAAAGCCGAAGCCT; middle segment
ATCTCTAGCTAAAGTTCAGTGAAAGATCGATAGA; middle segment

Using the reported PBM binding z-score, which band applies to `GGAACGAGGGCAAGTTGGTAGCAGAGTTTGATGG` ?
middle segment

Another sequence to check: `ACTATTAGTTGATTTAGGGCAACCGATACGACGC`
lower segment

Another sequence to check: `ATACCAAGGTGATAGTGAGGTCGTTGATACTAAC`
upper segment

====

- Tested on: PPARa:RXRa (NR concentration 270 nM, RXRa partner concentration 90 nM)
- experiment-description: PBM binding z-score (relative to random genomic background probes); higher = stronger binding; sequences stand for … in GC…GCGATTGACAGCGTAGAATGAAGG
The label depends only on PBM binding z-score: 1 (yes) if it is at least 3, 0 (no) if it is smaller.

ACTAGTTGGTCAGCTGAGGTCACGCACAATTCGG; 1 (yes)
AGTCAAAGTTCGCTAGGTAACGTAAGATTCAGCT; 0 (no)
TCTGCTAGGTCAACGATCGTCAGCTAATCTGCTA; 1 (yes)
TAGCCTAAGTCAGATCGGGCCAGTATACGCTATA; 0 (no)
GCTGCTAGGTCAGGTTGGTGAGCTAACGGGTACG; 0 (no)
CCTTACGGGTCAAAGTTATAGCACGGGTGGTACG; 1 (yes)
GCGACTGGGTCAAAGCAGGTTACCATAAGGTTGG; 1 (yes)
ATGTCTAGGTAACCAAGTTCAGTGAATGCCGAAC; 0 (no)
ACAGACAGGTGAGAGAAGGTAACTCAGCTGGACG; 0 (no)
AATACAGGGTCATCGTGGGCCAGAGTACGCACAG; 1 (yes)

Answer whether PBM binding z-score of `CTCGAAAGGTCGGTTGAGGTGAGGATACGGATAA` is greater than or equal to 3.
0 (no)

Another sequence to check: `CCTGCTAGGTCAATGGTCAGCTTAAGCAGCTCGC`
1 (yes)

Another sequence to check: `CGTCAAAGTTCAACTAAGGTAAAGTAAAGCACGC`
1 (yes)

Another sequence to check: `CAAACTAGGTCAAGAGGTCAAAGTGCGCTTCCCG`
1 (yes)

Another sequence to check: `CTCGAAAAGTCGGTTGAGGTGAGTATACGGATAA`
0 (no)

Another sequence to check: `GCTAGCAGGCTATTTGGGTCACTCAATGACGGGC`
0 (no)

Another sequence to check: `ACTTACGGGTCAACGCGGTTATAGCACGCGTATA`
1 (yes)

Another sequence to check: `CAGCCTAGGTCAGGACCAGTATAGGAGGAACGTT`
0 (no)

Another sequence to check: `GTACCAAGGTGAATAGGTCGTAGATGAGTAGGCG`
0 (no)

Another sequence to check: `CCTCGTTGGTCAAGGTCACACACGCTATAGGTAC`
1 (yes)

Another sequence to check: `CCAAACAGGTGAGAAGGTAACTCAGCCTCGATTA`
0 (no)

Another sequence to check: `CCTTACGGGTCACGAAGTTATAGCACGACGAGCG`
1 (yes)

Another sequence to check: `TCTTGTAGATCAACAGGAGTTTAAGAAAGATCGA`
0 (no)

Another sequence to check: `GCTAGCAGGCCCTTTGGGTCACTCAATGACGGGC`
0 (no)

Another sequence to check: `ATCGAAAGGTCGTAAGGTGAGTATACAGAAAGGC`
1 (yes)

Another sequence to check: `CAAACTAGGTCAAGGTTAAAGTCGGTTTGTGCCA`
1 (yes)

Another sequence to check: `GGAACGACGGCAAAGTTGATAGCATCTGTCGACG`
0 (no)

Another sequence to check: `TAGCCTAGGTCATGCGGGCTAGTATAGTGTCGGC`
1 (yes)

Another sequence to check: `CCAGACAGGTGCAAGGTAACTCAGTCTGGTACGC`
0 (no)

Another sequence to check: `CCGACTGGTGCATAAGGTTACCATAAGCCAGCCC`
0 (no)

====

- System: RXRa homodimer (NR concentration 180 nM)
- experiment-description: PBM binding z-score (relative to random genomic background probes); higher = stronger binding; sequences stand for … in GC…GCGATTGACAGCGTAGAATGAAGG
The label depends only on PBM binding z-score: condition met if it is at least 1, condition not met if it is smaller.

Below, 2 sequences whose answers are already recorded.
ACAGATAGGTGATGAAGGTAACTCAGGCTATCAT; condition not met
CCTAGTTGGTCAAGGTCACAGACGCTATAGGTAC; condition met

Answer whether PBM binding z-score of `ATCTCTAGGTAACAAGTTCATTGAAAGAGAGGAC` is greater than or equal to 1.
condition met

Another sequence to check: `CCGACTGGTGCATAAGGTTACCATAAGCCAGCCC`
condition not met

Another sequence to check: `GCTGCTAGGTCAACTGATGGTCAGCTCAAGCTCG`
condition met

Another sequence to check: `TCGAGTAGGGTAGTCGGGGCATTCAGCCAACATA`
condition not met

Another sequence to check: `ATCTCTAGGTAAAGATTGTTCAGTGAATGCAAAT`
condition not met

====

- System: PPARg:RXRa 270nM:90nM, anti-RXR (NR concentration 270 nM, RXRa partner concentration 90 nM)
- experiment-description: PBM binding z-score (relative to random genomic background probes); higher = stronger binding; sequences stand for … in GC…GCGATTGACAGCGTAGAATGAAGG
The label depends only on PBM binding z-score: Met if it is at least 2, Not met if it is smaller.

Below, 2 sequences whose answers are already recorded.
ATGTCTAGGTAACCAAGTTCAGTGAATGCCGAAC; Not met
GCTGCTAGGTAAACTGATGGTCAGCTAAAGCTCG; Not met

Answer whether PBM binding z-score of `AGAACCAGGGCACGCTGAGTTGATAGCAGAGTAG` is greater than or equal to 2.
Not met

Another sequence to check: `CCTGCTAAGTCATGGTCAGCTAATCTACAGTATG`
Not met

Another sequence to check: `CCTACTGGGCCAATCAGAGGTCATTGATCATATG`
Met
